Each recorded value in this set is attributed to patent US20240344241A1.

Examples of binders with documented pKd follow.
- target_under_test: bovine trypsin (bovine), P00760
- Sequence (P00760 24-246): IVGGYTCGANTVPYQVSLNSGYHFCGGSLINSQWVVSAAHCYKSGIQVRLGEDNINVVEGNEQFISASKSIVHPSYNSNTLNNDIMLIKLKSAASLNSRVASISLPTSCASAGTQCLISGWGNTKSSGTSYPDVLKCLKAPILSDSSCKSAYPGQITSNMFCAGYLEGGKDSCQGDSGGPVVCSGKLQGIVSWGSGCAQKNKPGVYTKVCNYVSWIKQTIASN
- protocol_notes: SPR, bovine trypsin
pKd: −log10 of the molar value.
experimental_readout: pKd

{"binder": "DGGRCPRLLRWCRRDSDCPGACICARGGLCGSGS (modifications not checked) [MCoFx3 acyclic]", "experimental_readout": "pKd", "sign_qualifier": "=", "observed_value": 8.62}
{"binder": "DGGRCPRLLRWCRRDSDCPGACICARGGLCGSGS (modifications not checked) [MCoFx3 cyclic]", "experimental_readout": "pKd", "sign_qualifier": "=", "observed_value": 8.57}
{"binder": "DGGICPRILVYCRRDSDCPGACICIRRTYCGSGS (modifications not checked) [MCoFx2 acyclic]", "experimental_readout": "pKd", "sign_qualifier": ">", "observed_value": 10.00}
